Tested on: LOC_OS01G70970-cb002
EXPERIMENT NOTES: thermal shift delta Tm vs DMSO control; higher = stronger stabilization (binding);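 further: purified Escherichia coli-expressed rice kinase domain construct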
PROTOCOL CONDITIONS: 12.5 µM; protein concentration 2 µM
Where a name gives a salt, the structure may show the parent alone.
A collection of compounds and their measured thermal shift delta Tm
Report the figure in °C without appending any unit label.

CCCCOc1c(C(=O)c2c(F)cc(C)cc2F)c[nH]c2nncc1-2; 0.23

q: # query: thermal shift delta Tm of entry CCOc1cc2ncc(C#N)c(Nc3ccc(F)c(Cl)c3)c2cc1NC(=O)/C=C/CN(C)C [Pelitinib (EKB-569)]
a: 0.22

q: Try "CN1CCC(Nc2nc(Nc3ccc(Oc4ccccc4)cc3)c3c(=O)[nH]cc(Br)c3n2)CC1" next.
a: 3.58

q: Try "O=c1cc(N2CCOCC2)oc2c1ccc1ccccc12" next.
a: -0.28

q: Try O=C(Nc1cnn2ccc(N3CCC[C@@H]3c3cc(F)ccc3F)nc12)N1CC[C@H](O)C1 [Larotrectinib (LOXO-101) sulfate] next.
a: 0.22

q: Try CC[C@H](CO)Nc1nc(NCc2ccccc2)c2ncn(C(C)C)c2n1 [Roscovitine (Seliciclib,CYC202)] next.
a: 0.28

q: Try "C[C@]1(O)C[C@@H](c2nc(-c3ccc4ccc(-c5ccccc5)nc4c3)c3c(N)nccn32)C1" next.
a: 0.38

====

System: LOC_OS02G07810-cb001
EXPERIMENT NOTES: thermal shift delta Tm vs DMSO control; higher = stronger stabilization (binding)
PROTOCOL CONDITIONS: 12.5 µM; protein concentration 2 µM
Where a name gives a salt, the structure may show the parent alone.
ASSAY READOUT: thermal shift delta Tm (°C)
Report the figure in °C without appending any unit label.

Cc1cc(O)c(-c2ccc([C@@H](C)CN)cc2)c2c1[nH]c(=O)c1sccc12 [OTS514 hydrochloride]; 0.41
CN(C)C/C=C/C(=O)Nc1cc2c(Nc3ccc(F)c(Cl)c3)ncnc2cc1O[C@H]1CCOC1 [Afatinib (BIBW2992) Dimaleate]; 0.8

We next turn to a different compound, shown below.
q: # query: thermal shift delta Tm of entry "C#Cc1cccc(Nc2ncnc3cc(OC)c(OCCCCCCC(=O)NO)cc23)c1"
a: 0.79

====

A collection of compounds and their measured thermal shift delta Tm
Test system: LOC_OS02G17970-cb001
EXPERIMENT NOTES: thermal shift delta Tm vs DMSO control; higher = stronger stabilization (binding)
PROTOCOL CONDITIONS: 12.5 µM; protein concentration 2 µM
Report the figure in °C without appending any unit label.

Below: 5 compounds and their reported thermal shift delta Tm.
CNc1nc(Nc2cnn([C@H]3CCN(C4COC4)C[C@@H]3F)c2Cl)ncc1C(F)(F)F; 0.35
COc1cc(OC)c(C=C2C(=O)Nc3ccccc32)c(OC)c1; 0.65
CCN(CC)CCNC(=O)c1c(C)[nH]c(/C=C2\C(=O)Nc3ccc(-c4csc(-c5ccccc5)n4)cc32)c1C; -0.15
O=C(c1ccc(F)c(F)c1Nc1ccc(I)cc1F)N1CC(O)([C@@H]2CCCCN2)C1; 0.97
CN1CCN(c2ccc(C(=O)Nc3n[nH]c4ccc(Cc5cc(F)cc(F)c5)cc34)c(NC3CCOCC3)c2)CC1 [Entrectinib (RXDX-101)]; 0.09

q: Test system LOC_OS02G17970-cb001; read-out thermal shift delta Tm; what value for "COc1cc(N2CCC(N(C)C)CC2)ccc1Nc1ncc(Cl)c(Nc2ccccc2P(C)(C)=O)n1" ?
a: 0.5

q: Try "CC(C)(O)CC(=O)NCCn1ccc2ncnc(Nc3ccc(Oc4cccc(C(F)(F)F)c4)c(Cl)c3)c21" next.
a: 0.83

q: Try "CC(C)(C)c1ccc(S(=O)(=O)/C=C/C#N)cc1" next.
a: 5.71

q: Try "CN(C)Cc1cccc(N/C(=C2\C(=O)Nc3cc(C(N)=O)ccc32)c2ccccc2)c1" next.
a: 0.67

q: Try "CN1CCN(c2cccc(Nc3nc4c(-c5ccc(S(C)(=O)=O)cc5)cccn4n3)c2)CC1" next.
a: 0.48

q: Try "Cc1cccc(CC(=O)N2CCc3c2ccc(-c2cn(C)c4ncnc(N)c24)c3F)n1" next.
a: 1.12

q: Try O=C1NC(=O)C(=Cc2ccc(-c3ccc(F)cc3)o2)S1 (stereo in doubt) next.
a: 1.28

q: Try C[S+]([O-])c1ccc(-c2nc(-c3ccc(F)cc3)c(-c3ccncc3)[nH]2)cc1 (stereo not drawn) next.
a: 0.84
